System: CAKI-1
Test: NCI tumour cell line growth inhibition, 48 h
Activity calls are given as the source filed them. No stated cut-off is given here; in the data, active = GI50 up to about 1.1 µM and inactive = higher.
measurement_kind: GI50

Guide cases for GI50, answers given:
CC1=CC2C(C=C1)S(=O)(=O)N1CC21c1ccccc1 (stereo not drawn): 44.2 µM (inactive)
O=C(O)CCNc1[nH]cnc2ncnc1-2: > 100 µM (inactive)

We next turn to a different compound, shown below.
# get_value(readout= GI50, system= CAKI-1) for `CCOC(=O)c1ccc(N(CCOS(C)(=O)=O)CCOS(C)(=O)=O)cc1`
12.6 µM (inactive)

---

Test system: COLO 205
Test: NCI tumour cell line growth inhibition, 48 h
Calls of active or inactive are those of the source. No stated cut-off is given here; in the data, active = GI50 up to about 1.1 µM and inactive = higher.
Give your call using only these classes: active, inactive

As a guide, the following entries are already answered.
CO[P@@]1(=O)O[C@@H](c2ccccc2)[C@H](O)[C@@]1(O)c1ccccc1: inactive
CC(=O)OC(Cc1ccc2ccccc2n1)(C(F)(F)F)C(F)(F)F: active
CC(=O)OCCOCNC(=S)N/N=C/c1ccc([N+](=O)[O-])s1: inactive
NNc1nnc(-c2nnc(NN)o2)o1: inactive
Cn1c(SCc2ccc(F)cc2)nnc1C12CC3CC(CC(C3)C1)C2: inactive
CCOC(=O)c1ccc(N(CCOS(C)(=O)=O)CCOS(C)(=O)=O)cc1: inactive
Cc1cc(NS(=O)(=O)c2ccc(NC(=O)c3ccc4nc5ccccc5c(Nc5ccc(S(N)(=O)=O)cc5)c4c3)cc2)no1: inactive
O=c1cnn(C/C=C/CBr)c(=O)[nH]1: inactive
C[C@H]1[C@H](C)N(Cc2ccccc2)P(=O)(C(O)/C=C/c2ccccc2)N1Cc1ccccc1 (stereo partly drawn): inactive
COc1ccc(N2C(=O)/C(=C(\C)c3cc4ccccc4oc3=O)N=C2c2cc([N+](=O)[O-])ccc2Cl)cc1: inactive

# evaluate next
Which result was noted for this compound in the test: `CCCCCCCCCC(=O)CC(=O)c1c(O)cccc1O`
inactive

---

Tested on: SK-MEL-28
Test: NCI tumour cell line growth inhibition, 48 h
Activity calls are given as the source filed them. Cut-off read from the data, not from the text of the source: active = GI50 up to about 1.1 µM and inactive = higher.
Give your call using only these classes: active, inactive

O=C(CCCC1Cc2ccccc2C1=O)c1ccccc1 (stereo not given): inactive
COc1c(OC(C)=O)c(OC(C)=O)cc2c1-c1ccc(SC)c(=O)cc1C(NC(C)=O)CC2 (stereo not given): active
COc1ccccc1NC(=O)C1=C(C)NC(C)=C(C(=O)Nc2ccccc2OC)C1c1cccc2c1OCO2: inactive

Which result was noted for this compound in the test: `Clc1ccc2oc(CCc3ccccc3)nc2c1`
inactive

Which result was noted for this compound in the test: Oc1ccc2c(c1)OCC(O)(c1ccccc1O)C2 (stereo not given)
inactive

Which result was noted for this compound in the test: CC(=O)c1ccc2c(c1)CC1(C2)Cc2ccccc2C1=O (stereo not given)
inactive

Which result was noted for this compound in the test: `CCOC(=O)N(c1ccccc1)N(CC)C(=O)/C(C)=N/Nc1ccc([N+](=O)[O-])cc1`
inactive

---

System: EKVX
Experiment: NCI tumour cell line growth inhibition, 48 h
Active and inactive are the calls of the source. No stated cut-off is given here; in the data, active = GI50 up to about 1.1 µM and inactive = higher.
measurement_kind: GI50

Guide cases for GI50, answers given:
CC(C)CC1NC(=O)C(C(C)C)NC(=O)CC(C)COC(=O)C(CC(C)C)N(C)C(=O)C(C(C)C)NC(=O)C(C(C)C)OC1=O (stereo not given): > 50 µM (inactive)
CC(CC(=O)Nc1ccc(NC(=O)CC(C)/N=N\C(N)=S)cc1)/N=N\C(N)=S (stereo not given): > 100 µM (inactive)
O=C1C=CC(=O)C12CCc1ccccc12: > 100 µM (inactive)
CN(N=O)C(=O)NC(CCCCNC(=O)OCc1ccccc1)C(=O)OCc1ccccc1 (stereo not given): > 100 µM (inactive)
CC1=CCC[C@]2(C)C1=CC(=O)O[C@H]2c1ccoc1: > 100 µM (inactive)

Dear colleague, could you please provide GI50 for the compounds listed below?
1. CC1OC(O[C@@H]2OC=C(C=O)[C@@]3(O)CC[C@H](C)[C@@H]23)C(O)C(O)C1O (stereo not given in full)
2. O=C(O)CCNc1[nH]cnc2ncnc1-2
3. NS(=O)(=O)c1nnc(NS(=O)(=O)c2ccccc2[N+](=O)[O-])s1
4. CN(C)C=C1C(Cl)=C(C=O)CC(C=O)=C1Cl
5. NC(=O)C(=Cc1ccc(C(O)P(=O)(O)O)cc1)C(N)=O (stereo not given)
6. NC(=O)c1cn(C2OC(CO)C(O)C2O)c2nc[n+]([O-])c(N)c12 (stereo not given)

["> 100 µM (inactive)", "> 100 µM (inactive)", "> 100 µM (inactive)", "22.4 µM (inactive)", "> 100 µM (inactive)", "1.21 µM (inactive)"]

Dear colleague, could you please provide GI50 for the compounds listed below?
1. C[n+]1cn(CC(=O)c2ccccc2)c(C(N)=O)c1N
2. CC1CCC2C(C)C(OC(=O)CCC(=O)O)OC3OC4(C)CCC1C32OO4 (stereo not given)
3. CC(C)=CCc1cc(C2COc3cc4c(c(O)c3C2=O)C=CC(C)(C)O4)c(O)cc1O (stereo not given)
4. COc1ccc2nc3ccc(OC)cc3c([S+]([O-])Cc3ccc([N+](=O)[O-])cc3)c2c1 (stereo not given)
5. COC(=O)C1(C)CCCC2(C)C3CCC4CC3(C=C4CO)CCC12 (stereo not given)

["> 100 µM (inactive)", "6.27 µM (inactive)", "12.7 µM (inactive)", "16.6 µM (inactive)", "41.2 µM (inactive)"]

Dear colleague, could you please provide GI50 for the compounds listed below?
1. CC1OC(OC2C(O[C@H]3CC[C@@]4(C)C(=CC[C@H]5[C@@H]6C[C@@H]7O[C@]8(CC[C@H](C)CN8)[C@@H](C)[C@@H]7[C@@]6(C)CC[C@@H]54)C3)OC(CO)C(O)C2OC2OC(CO)C(O)C(O)C2O)C(O)C(O)C1O (stereo not given in full)
2. C=C(C)C1CC2(C)C(C)CC(OC(=O)/C(C)=C\C)CC2C(OC(=O)/C(C)=C\C)C1O (stereo not given)
3. CCCCCCOc1ccc(NC2=C(Cl)C(=O)c3c(O)ccc(O)c3C2=O)cc1
4. CNC(=S)/N=C(\N)N(C)C
5. CC(=O)OCCOCNC(=S)N/N=C/c1ccc([N+](=O)[O-])s1
6. CC1(C)C/C(=N/O)c2c(nc3ccc4ccccc4c3c2-c2ccc(Cl)cc2)C1

1. 16.5 µM (inactive)
2. 67 µM (inactive)
3. > 10 µM (inactive)
4. > 100 µM (inactive)
5. 55.5 µM (inactive)
6. 15.7 µM (inactive)

The reported numbers originate from ChEMBL document CHEMBL1201862.
